Please go through the items and note down their area under dose-response curve.
# Tested on: KG1
# Method summary: area under dose-response curve (cell viability) (AUC (arbitrary, % viability x log concentration)); higher = less sensitive (more viable)
# Measurement setup: 4 days
Structures can show the parent of a compound that is named as a salt.
One number for each entry.

Solved entries:
COC1=CC(c2cc3ccccc3[nH]2)=N/C1=C\c1[nH]c(C)cc1C [Obatoclax]; 366
CN(C)C1CCN(C(=O)c2ccc(NC(=O)Nc3ccc(-c4nc(N5CCOCC5)nc(N5CCOCC5)n4)cc3)cc2)CC1 [PKI-587]; 548
Cc1ccccc1-n1c(Cn2cnc3c(N)ncnc32)nc2cccc(C)c2c1=O; 718
Nc1cc(C(F)(F)F)c(-c2cc(N3CCOCC3)nc(N3CCOCC3)n2)cn1 [BKM-120]; 566
CCC1=C[C@@H]2CN(C1)Cc1c([nH]c3ccccc13)[C@@](C(=O)OC)(c1cc3c(cc1OC)N(C)[C@H]1[C@@](O)(C(=O)OC)[C@H](OC(C)=O)[C@]4(CC)C=CCN5CC[C@]31[C@@H]54)C2 [Vinorelbine tartrate]; 373

I would be grateful if you could provide area under dose-response curve for each of the following entries.
1. C[C@@H]1C[C@H]2[C@@H]3CCC4=CC(=O)C=C[C@]4(C)[C@@]3(F)[C@@H](O)C[C@]2(C)[C@@]1(O)C(=O)CO [dexamethasone]
2. CC(C)C[C@H](NC(=O)[C@H](Cc1ccccc1)NC(=O)c1cnccn1)B(O)O [Bortezomib]
3. CN1CC[C@H](c2c(O)cc(O)c3c(=O)cc(-c4ccccc4Cl)oc23)[C@H](O)C1 [Flavopiridol]
4. CC[C@H](CO)Nc1nc(NCc2ccccc2)c2ncn(C(C)C)c2n1 [R-roscovitine]
5. CC(=O)O[C@H]1C(=O)[C@@]2(C)[C@H]([C@H](OC(=O)c3ccccc3)[C@]3(O)C[C@H](OC(=O)[C@H](O)[C@@H](NC(=O)c4ccccc4)c4ccccc4)C(C)=C1C3(C)C)[C@]1(OC(C)=O)CO[C@@H]1C[C@@H]2O [Paclitaxel]
6. CC1(C)CCC(c2ccc(Cl)cc2)=C(CN2CCN(c3ccc(C(=O)NS(=O)(=O)c4ccc(N[C@H](CCN5CCOCC5)CSc5ccccc5)c(S(=O)(=O)C(F)(F)F)c4)cc3)CC2)C1 [ABT-263]
7. CCN(CC)CCNC(=O)c1c(C)[nH]c(/C=C2\C(=O)Nc3ccc(F)cc32)c1C [Sunitinib]
8. COc1cc2/c(=N/c3ccc(Br)cc3F)nc[nH]c2cc1OCC1CCN(C)CC1 [Vandetanib]

1. 689
2. 330
3. 300
4. 711
5. 154
6. 528
7. 581
8. 626

Value wanted: area under dose-response curve (KG1) of entry S=c1[nH]cnc2nc[nH]c12 [Mercaptopurine]
694
